Source: ChEMBL document CHEMBL3885861

Overview of recorded MCHC for various compounds
Organism: Rattus norvegicus
Experiment: Open TG-GATES - Regimen: Daily Repeat
Type: toxicity, organism-based, Sprague-Dawley
Design: regimen Daily Repeat, gender Male, age 6 weeks
Details: in vivo, po, 100 mg/kg, […], tissue Blood, route gavage, dose level Low, time 14 day
readout name: MCHC (%)

- O=C(OC[C@H]1O[C@@H](OC(=O)c2cc(O)c(O)c(OC(=O)c3cc(O)c(O)c(O)c3)c2)[C@H](OC(=O)c2cc(O)c(O)c(OC(=O)c3cc(O)c(O)c(O)c3)c2)[C@@H](OC(=O)c2cc(O)c(O)c(OC(=O)c3cc(O)c(O)c(O)c3)c2)[C@@H]1OC(=O)c1cc(O)c(O)c(OC(=O)c2cc(O)c(O)c(O)c2)c1)c1cc(O)c(O)c(OC(=O)c2cc(O)c(O)c(O)c2)c1: 33.4
- CCOc1ccc(NC(C)=O)cc1: 34
- Cc1nnc2n1-c1ccc(Cl)cc1C(c1ccccc1Cl)=NC2: 32.9
- CN/C(=N/CCSCc1nc[nH]c1C)NC#N: 32.8
- CNC(=C[N+](=O)[O-])NCCSCc1ccc(CN(C)C)o1: 36
- COC(=O)C1=C(C)NC(C)=C(C(=O)OC)C1c1ccccc1[N+](=O)[O-]: 33.2
